target.entity: human α4β7 (Homo sapiens, UniProt P13612+P26010)
Construct: expressed in transfected cells
Sequence (P26010 20-798, one chain of several): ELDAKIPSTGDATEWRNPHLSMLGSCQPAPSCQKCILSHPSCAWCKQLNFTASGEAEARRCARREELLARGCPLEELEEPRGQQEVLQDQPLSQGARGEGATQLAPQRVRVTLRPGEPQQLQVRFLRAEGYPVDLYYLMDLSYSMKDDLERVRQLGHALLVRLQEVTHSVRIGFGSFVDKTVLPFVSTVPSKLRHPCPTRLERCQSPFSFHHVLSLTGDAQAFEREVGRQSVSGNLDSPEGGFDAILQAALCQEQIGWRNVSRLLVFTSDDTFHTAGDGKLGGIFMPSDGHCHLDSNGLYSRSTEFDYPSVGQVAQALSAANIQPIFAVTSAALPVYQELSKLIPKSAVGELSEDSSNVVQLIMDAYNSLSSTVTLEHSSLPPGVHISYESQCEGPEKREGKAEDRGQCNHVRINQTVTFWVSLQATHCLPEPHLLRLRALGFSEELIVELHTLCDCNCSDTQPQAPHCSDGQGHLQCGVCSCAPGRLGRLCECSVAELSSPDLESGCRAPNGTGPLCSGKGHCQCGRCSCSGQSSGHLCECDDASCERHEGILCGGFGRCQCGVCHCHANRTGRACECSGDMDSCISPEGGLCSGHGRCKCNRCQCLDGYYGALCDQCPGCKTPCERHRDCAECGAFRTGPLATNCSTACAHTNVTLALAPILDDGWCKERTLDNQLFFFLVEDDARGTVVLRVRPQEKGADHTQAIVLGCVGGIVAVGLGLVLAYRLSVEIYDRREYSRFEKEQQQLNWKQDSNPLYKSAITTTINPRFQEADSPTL
experimental.details: α4β7-K562 Cell Adhesion Assay (α4β7 Mediated Adhesion/VCAM-1)
Format: cell-based
particulars: K562 cells expressing human α4β7, adhesion to recombinant hVCAM-1; read-out: α4β7 IC50
t if IC50 is below 0.03 µM. f if not; exact matches included in f.

Reference set (3 entries):
> print(dat)
                                   molecule                             target.entity  class.label
1  O=C(Nc1ccc(CC(NC(=O)C2C3CCC(CC3)N2C(=O)CSc2ccc(F)cc2)C(=O)O)cc1)c1c(Cl)cncc1Cl (centres unmarked)  human α4β7 (Homo sapiens, UniProt P13612+P26010)            t
2  COCCC(=O)Nc1ccc(CC(NC(=O)C2C3CCC(CC3)N2C(=O)CCOC)C(=O)O)cc1 (centres unmarked)  human α4β7 (Homo sapiens, UniProt P13612+P26010)            f
3  O=C(O)C(Cc1ccc(OC(=O)N2CCOCC2)cc1)NC(=O)C1C2CCC(CC2)N1C(=O)CCO (centres unmarked)  human α4β7 (Homo sapiens, UniProt P13612+P26010)            f

Item CS(=O)(=O)CC(=O)N1C2CCC(CC2)C1C(=O)NC(Cc1ccc(NC(=O)c2c(Cl)cncc2Cl)cc1)C(=O)O (centres unmarked) : IC50 beneath 0.03 µM, strictly?
f

Item O=C(Nc1ccc(CC(NC(=O)C2C3CCC(CC3)N2C(=O)CSc2ccncc2)C(=O)O)cc1)c1c(Cl)cncc1Cl (centres unmarked) : IC50 beneath 0.03 µM, strictly?
t

Item O=C(O)C(Cc1ccc(OC(=O)N2CCOCC2)cc1)NC(=O)C1C2CCC(CC2)N1C(=O)CCc1ccc2c(c1)OCO2 (centres unmarked) : IC50 beneath 0.03 µM, strictly?
f

Item O=C(Nc1ccc(CC(NC(=O)C2C3CCC(CC3)N2C(=O)CCO)C(=O)O)cc1)c1c(Cl)cncc1Cl (centres unmarked) : IC50 beneath 0.03 µM, strictly?
t

Item O=C(Nc1ccc(CC(NC(=O)C2C3CCC(CC3)N2C(=O)CS(=O)(=O)c2ccccc2)C(=O)O)cc1)c1c(Cl)cncc1Cl (centres unmarked) : IC50 beneath 0.03 µM, strictly?
t

* * *

target.entity: α4β1 (Homo sapiens, UniProt P05556+P13612)
Sequence (P13612 34-1032): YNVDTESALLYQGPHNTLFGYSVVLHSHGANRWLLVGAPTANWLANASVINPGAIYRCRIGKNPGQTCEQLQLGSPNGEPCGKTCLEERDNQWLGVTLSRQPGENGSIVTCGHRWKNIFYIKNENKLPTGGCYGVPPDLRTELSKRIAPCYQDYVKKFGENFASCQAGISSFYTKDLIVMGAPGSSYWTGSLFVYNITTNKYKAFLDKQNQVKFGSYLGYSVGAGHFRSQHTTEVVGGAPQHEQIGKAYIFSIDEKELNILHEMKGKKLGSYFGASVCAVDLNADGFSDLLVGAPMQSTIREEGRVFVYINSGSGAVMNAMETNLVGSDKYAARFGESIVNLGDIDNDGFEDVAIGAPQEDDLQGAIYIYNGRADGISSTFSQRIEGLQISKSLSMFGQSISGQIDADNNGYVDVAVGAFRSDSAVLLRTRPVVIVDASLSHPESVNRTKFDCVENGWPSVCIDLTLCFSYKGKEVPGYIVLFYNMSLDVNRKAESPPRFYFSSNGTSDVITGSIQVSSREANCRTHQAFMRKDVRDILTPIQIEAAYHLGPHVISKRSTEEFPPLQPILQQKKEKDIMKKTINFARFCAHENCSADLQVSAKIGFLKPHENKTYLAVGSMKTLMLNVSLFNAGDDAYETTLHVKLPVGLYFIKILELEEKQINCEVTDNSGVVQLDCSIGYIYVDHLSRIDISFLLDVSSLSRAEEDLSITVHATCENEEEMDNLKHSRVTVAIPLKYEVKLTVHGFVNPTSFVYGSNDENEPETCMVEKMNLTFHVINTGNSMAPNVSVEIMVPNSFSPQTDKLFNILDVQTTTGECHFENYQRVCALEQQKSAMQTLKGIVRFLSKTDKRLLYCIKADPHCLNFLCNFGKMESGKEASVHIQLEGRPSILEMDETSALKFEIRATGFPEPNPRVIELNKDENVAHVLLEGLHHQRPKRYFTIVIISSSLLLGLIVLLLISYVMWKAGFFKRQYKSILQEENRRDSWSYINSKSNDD
Sequence (P05556 21-798): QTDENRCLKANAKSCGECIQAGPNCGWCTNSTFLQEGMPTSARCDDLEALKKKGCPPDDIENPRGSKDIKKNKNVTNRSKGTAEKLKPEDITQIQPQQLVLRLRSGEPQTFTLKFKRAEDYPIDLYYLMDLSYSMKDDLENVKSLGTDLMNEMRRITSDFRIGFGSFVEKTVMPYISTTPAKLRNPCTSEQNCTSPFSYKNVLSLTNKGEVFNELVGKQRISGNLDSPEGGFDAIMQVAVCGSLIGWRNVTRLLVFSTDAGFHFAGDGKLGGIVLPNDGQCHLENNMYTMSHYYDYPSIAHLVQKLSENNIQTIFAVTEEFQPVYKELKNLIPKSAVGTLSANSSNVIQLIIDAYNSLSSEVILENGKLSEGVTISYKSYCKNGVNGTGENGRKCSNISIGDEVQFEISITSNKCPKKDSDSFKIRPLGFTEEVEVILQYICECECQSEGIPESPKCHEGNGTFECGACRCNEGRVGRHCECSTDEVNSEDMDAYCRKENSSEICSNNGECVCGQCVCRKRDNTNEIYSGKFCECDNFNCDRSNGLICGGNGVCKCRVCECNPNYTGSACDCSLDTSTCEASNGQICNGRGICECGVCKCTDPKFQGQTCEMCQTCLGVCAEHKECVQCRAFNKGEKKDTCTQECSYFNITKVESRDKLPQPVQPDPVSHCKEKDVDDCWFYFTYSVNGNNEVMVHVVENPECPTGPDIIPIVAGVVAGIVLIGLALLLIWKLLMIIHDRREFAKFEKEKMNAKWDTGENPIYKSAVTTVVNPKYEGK
experimental.details: Ramos Cell Adhesion Assay (α4β1 Mediated Adhesion/VCAM-1)
Assay type: cell-based
Set-up: Ramos Cell Adhesion Assay (α4β1 Mediated Adhesion/VCAM-1); endogenous in cells; host or cells: Ramos cells
readout.type: IC50
Your answer should be a number followed by the unit of measure.

What reported IC50 corresponds to COCCC(=O)N1C2CCC(CC2)C1C(=O)NC(Cc1ccc(OC(=O)N(C)C)cc1)C(=O)O (stereo not shown) on α4β1 (Homo sapiens, UniProt P05556+P13612)?
1270 nM

* * *

target.entity: human α4β7 (Homo sapiens, UniProt P13612+P26010)
Construct: expressed in transfected cells
experimental.details: α4β7-K562 Cell Adhesion Assay (α4β7 Mediated Adhesion/VCAM-1)
Format: cell-based
readout.type: pIC50
In plain terms, pIC50 is the concentration in mol/L turned into minus its base-10 logarithm.

Value lookup for pIC50; key = COCCC(=O)N1C2CCC(CC2)C1C(=O)NC(Cc1ccc(OC(=O)N(C)C)cc1)C(=O)O (stereo not shown)
6.52

* * *

target.entity: human α4β7 (Homo sapiens, UniProt P13612+P26010)
Construct: expressed in transfected cells
experimental.details: α4β7-K562 Cell Adhesion Assay (α4β7 Mediated Adhesion/VCAM-1)
Assay type: cell-based
particulars: K562 cells expressing human α4β7, adhesion to recombinant hVCAM-1; read-out: α4β7 IC50
Below, each entry is listed alongside its reported IC50.
Just the number please, in nM, no unit attached.

The cases that follow already have their IC50 on record.
> print(dat)
                                   molecule  value.observed
1  CC(C)(O)CCCC(=O)N1C2CCC(CC2)C1C(=O)NC(Cc1ccc(NC(=O)c2c(Cl)cncc2Cl)cc1)C(=O)O (stereo not shown)              47
2  CN(C)CCC(=O)N1C2CCC(CC2)C1C(=O)NC(Cc1ccc(NC(=O)c2c(Cl)cncc2Cl)cc1)C(=O)O (stereo not shown)             177
3  O=C(Nc1ccc(CC(NC(=O)C2C3CCC(CC3)N2C(=O)CSc2ccccn2)C(=O)O)cc1)c1c(Cl)cncc1Cl (stereo not shown)              10
4  NCCC(=O)N1C2CCC(CC2)C1C(=O)NC(Cc1ccc(NC(=O)c2c(Cl)cncc2Cl)cc1)C(=O)O (stereo not shown)              60
5  COCCC(=O)N1C2CCC(CC2)C1C(=O)NC(Cc1ccc(NC(=O)c2c(Cl)cncc2Cl)cc1)C(=O)O (stereo not shown)             117

Value lookup for IC50; key = O=C(Nc1ccc(CC(NC(=O)C2C3CCC(CC3)N2C(=O)CCO)C(=O)O)cc1)c1c(Cl)cccc1Cl (stereo not shown)
67

Value lookup for IC50; key = O=C(Nc1ccc(CC(NC(=O)C2C3CCC(CC3)N2C(=O)CCc2ccc3c(c2)OCO3)C(=O)O)cc1)c1c(Cl)cccc1Cl (stereo not shown)
35

* * *

target.entity: α4β1 (Homo sapiens, UniProt P05556+P13612)
experimental.details: Ramos Cell Adhesion Assay (α4β1 Mediated Adhesion/VCAM-1)
Type: cell-based
Design: Ramos Cell Adhesion Assay (α4β1 Mediated Adhesion/VCAM-1); endogenous in cells; host or cells: Ramos cells
particulars: Ramos cells, adhesion to recombinant hVCAM-1; read-out: α4β1 IC50
readout.type: pIC50
In plain terms, pIC50 is the concentration in mol/L turned into minus its base-10 logarithm.

The cases that follow already have their pIC50 on record.
> print(dat)
                                   molecule  value.observed
1  O=C(Nc1ccc(CC(NC(=O)C2C3CCC(CC3)N2C(=O)CSc2ccc(F)cc2)C(=O)O)cc1)c1c(Cl)cncc1Cl (stereo not drawn)            8.22
2  COCCC(=O)N1C2CCC(CC2)C1C(=O)NC(Cc1ccc(NC(=O)c2c(Cl)cncc2Cl)cc1)C(=O)O (stereo not drawn)            8.10
3  CN(C)CCC(=O)N1C2CCC(CC2)C1C(=O)NC(Cc1ccc(NC(=O)c2c(Cl)cncc2Cl)cc1)C(=O)O (stereo not drawn)            7.64
4  O=C(Nc1ccc(CC(NC(=O)C2C3CCC(CC3)N2C(=O)CS(=O)(=O)c2ccccc2)C(=O)O)cc1)c1c(Cl)cncc1Cl (stereo not drawn)            7.82
5  CC(C)(O)CCCC(=O)N1C2CCC(CC2)C1C(=O)NC(Cc1ccc(NC(=O)c2c(Cl)cncc2Cl)cc1)C(=O)O (stereo not drawn)            7.85
6  O=C(Nc1ccc(CC(NC(=O)C2C3CCC(CC3)N2C(=O)CCO)C(=O)O)cc1)c1c(Cl)cccc1Cl (stereo not drawn)            6.87
7  O=C(Nc1ccc(CC(NC(=O)C2C3CCC(CC3)N2C(=O)CSc2ccncc2)C(=O)O)cc1)c1c(Cl)cncc1Cl (stereo not drawn)            8.22
8  O=C(Nc1ccc(CC(NC(=O)C2C3CCC(CC3)N2C(=O)CCc2ccc3c(c2)OCO3)C(=O)O)cc1)c1c(Cl)cccc1Cl (stereo not drawn)            7.35

What reported pIC50 corresponds to O=C(Nc1ccc(CC(NC(=O)C2C3CCC(CC3)N2C(=O)CSc2ccccn2)C(=O)O)cc1)c1c(Cl)cncc1Cl (stereo not drawn) on α4β1 (Homo sapiens, UniProt P05556+P13612)?
8.05

What reported pIC50 corresponds to NCCC(=O)N1C2CCC(CC2)C1C(=O)NC(Cc1ccc(NC(=O)c2c(Cl)cncc2Cl)cc1)C(=O)O (stereo not drawn) on α4β1 (Homo sapiens, UniProt P05556+P13612)?
7.54

What reported pIC50 corresponds to O=C(O)C(Cc1ccc(OC(=O)N2CCOCC2)cc1)NC(=O)C1C2CCC(CC2)N1C(=O)CCc1ccc2c(c1)OCO2 (stereo not drawn) on α4β1 (Homo sapiens, UniProt P05556+P13612)?
6.66

What reported pIC50 corresponds to O=C(Nc1ccc(CC(NC(=O)C2C3CCC(CC3)N2C(=O)CCO)C(=O)O)cc1)c1c(Cl)cncc1Cl (stereo not drawn) on α4β1 (Homo sapiens, UniProt P05556+P13612)?
8.40

What reported pIC50 corresponds to CS(=O)(=O)CC(=O)N1C2CCC(CC2)C1C(=O)NC(Cc1ccc(NC(=O)c2c(Cl)cncc2Cl)cc1)C(=O)O (stereo not drawn) on α4β1 (Homo sapiens, UniProt P05556+P13612)?
7.77
